biological target: Cannabinoid receptor 2 (Homo sapiens, UniProt P34972); experiment: Agonist activity at recombinant human full length CB2 receptor expressed in HEK293 cell membranes after 2 hrs by [35S]GTP-gammaS binding assay; format: functional
Sequence (P34972 whole entry): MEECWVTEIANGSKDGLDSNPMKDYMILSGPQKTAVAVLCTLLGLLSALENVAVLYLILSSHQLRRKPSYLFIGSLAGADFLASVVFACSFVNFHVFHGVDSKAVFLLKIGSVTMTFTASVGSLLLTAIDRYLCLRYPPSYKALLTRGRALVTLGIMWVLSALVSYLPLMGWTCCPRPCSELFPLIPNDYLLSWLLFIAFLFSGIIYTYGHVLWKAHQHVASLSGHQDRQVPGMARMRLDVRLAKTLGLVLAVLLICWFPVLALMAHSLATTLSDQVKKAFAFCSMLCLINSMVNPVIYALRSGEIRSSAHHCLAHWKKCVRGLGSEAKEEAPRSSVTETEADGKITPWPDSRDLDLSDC

# COMPOUND, UNITS_TEXT, IC50
measured = [
    ("CCCCCc1cc2c(c(OS(=O)(=O)c3ccc(C)cc3)c1)[C@@H]1CC(C)(OO)C=C[C@H]1C(C)(C)O2 (stereo partly drawn)", "µM", 1.75),
    ("CCCCCc1cc(O)c2c(c1)OC(C)(C)[C@@H]1C=C[C@@](C)(O)C[C@@H]21", "µM", 11.4),
    ("CCCCCc1cc(OC(C)=O)c2c(c1)OC(C)(C)[C@@H]1CC=C(C)C[C@@H]21", "µM", 0.518),
]

* * *

target: Cannabinoid receptor 1 (Homo sapiens); experiment: Displacement of [3H]CP-55,940 from recombinant human full length CB1 receptor expressed in HEK293 cell membranes after 90 mins by topcount method
Sequence (P21554 whole entry): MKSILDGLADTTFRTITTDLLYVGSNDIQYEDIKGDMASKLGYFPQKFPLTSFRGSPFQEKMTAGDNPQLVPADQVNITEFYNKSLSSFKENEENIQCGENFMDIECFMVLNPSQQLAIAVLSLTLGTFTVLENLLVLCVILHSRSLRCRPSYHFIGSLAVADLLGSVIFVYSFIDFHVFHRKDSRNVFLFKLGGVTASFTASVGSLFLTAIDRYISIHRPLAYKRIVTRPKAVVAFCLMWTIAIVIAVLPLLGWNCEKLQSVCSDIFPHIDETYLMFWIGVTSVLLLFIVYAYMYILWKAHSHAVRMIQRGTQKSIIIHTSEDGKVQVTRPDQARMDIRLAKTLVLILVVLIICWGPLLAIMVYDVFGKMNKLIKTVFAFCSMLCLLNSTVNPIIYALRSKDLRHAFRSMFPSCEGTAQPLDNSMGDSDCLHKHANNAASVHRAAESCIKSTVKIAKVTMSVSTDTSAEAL
pIC50: −log10 of the molar value.
RESULT_TYPE: pIC50

# COMPOUND, NUMBER
rows = [
    ("CCCCCC1=CC(=O)C2=C(OC(C)(C)[C@@H]3CC[C@](C)(OCC)C=C23)C1=O", 5.74),
    ("CCCCCc1cc(OC(C)=O)c2c(c1)OC(C)(C)[C@@H]1CC=C(C)C[C@@H]21", 7.06),
    ("C=C1C[C@H]2c3c(cc(CCCCC)cc3OS(=O)(=O)c3ccc(C)cc3)OC(C)(C)[C@@H]2CC1OO (some centres undefined)", 5.24),
    ("CCCCCc1cc2c(c(OS(=O)(=O)c3ccc(C)cc3)c1)[C@@H]1[C@H](O)C(C)=CC[C@H]1C(C)(C)O2", 5.89),
]

* * *

Measured Ki of individual entries
target: Cannabinoid receptor 2 (Homo sapiens); assay: Agonist activity at recombinant human full length CB2 receptor expressed in HEK293 cell membranes after 2 hrs by [35S]GTP-gammaS binding assay; format: functional

# COMPOUND, ASSAY_SYSTEM, Ki, µM
records = [
    ("CCCCCc1cc(OC(C)=O)c2c(c1)OC(C)(C)[C@@H]1CC=C(C)C[C@@H]21", "Cannabinoid receptor 2 (Homo sapiens)", 0.259),
    ("CCCCCc1cc(O)c2c(c1)OC(C)(C)[C@@H]1C=C[C@@](C)(O)C[C@@H]21", "Cannabinoid receptor 2 (Homo sapiens)", 5.7),
    ("CCCCCc1cc2c(c(OS(=O)(=O)c3ccc(C)cc3)c1)[C@@H]1CC(C)(OO)C=C[C@H]1C(C)(C)O2 (stereo partly drawn)", "Cannabinoid receptor 2 (Homo sapiens)", 0.876),
]

* * *

test system: Staphylococcus aureus; assay: Antimicrobial activity against methicillin-resistant Staphylococcus aureus by modified CLSI based method; format: functional, organism-based; conditions: Staphylococcus aureus
Parameter: MIC. Scope: all listed entries.
RESULT_TYPE: MIC (µg/mL)

# MOLECULE, RESULT_TYPE, NUMBER
measured = [
    ("CCCCCC1=CC(=O)C2=C(OC(C)(C)[C@@H]3CC[C@](C)(OCC)C=C23)C1=O", "MIC", 2.5),
    ("C=C1C[C@H]2C3=C(OC(C)(C)[C@@H]2CC1OO)C(=O)C(CCCCC)=CC3=O (stereo in doubt; 25)", "MIC", 10),
    ("CCCCCC1=CC(=O)C2=C(OC(C)(C)[C@@H]3C=CC(C)(OO)C[C@@H]23)C1=O (some centres undefined)", "MIC", 5),
    ("C=C1C[C@H]2C3=C(OC(C)(C)[C@@H]2C[C@H]1O)C(=O)C(CCCCC)=CC3=O", "MIC", 10),
]

* * *

target: UniProt:P34972; assay: Displacement of [3H]CP-55,940 from recombinant human full length CB2 receptor expressed in HEK293 cell membranes after 90 mins by topcount method
Friendly reminder: IC50 below 600 nM is Y, at or above is N.

# COMPOUND, ANSWER_LABEL
data = [
    ("CCCCCc1cc(O)c2c(c1)OC(C)(C)C1=C2C(OC(C)=O)C(C)(OC)CC1 (stereo not given)", "N"),
    ("CCCCCC1=CC(=O)C2=C(OC(C)(C)[C@@H]3CC[C@](C)(OCC)C=C23)C1=O", "N"),
    ("CCCCCc1cc2c(c(OS(=O)(=O)c3ccc(C)cc3)c1)[C@@H]1[C@H](O)C(C)=CC[C@H]1C(C)(C)O2", "N"),
    ("CCCCCc1cc(OC(C)=O)c2c(c1)OC(C)(C)[C@@H]1CC=C(C)C[C@@H]21", "Y"),
    ("C=C1C[C@H]2c3c(cc(CCCCC)cc3OS(=O)(=O)c3ccc(C)cc3)OC(C)(C)[C@@H]2CC1OO (stereo not given in full)", "N"),
    ("CCCCCc1cc(O)c2c(c1)OC(C)(C)[C@@H]1C=C[C@@](C)(O)C[C@@H]21", "Y"),
    ("CCCCCc1cc(OC(C)=O)c2c(c1)OC(C)(C)C1=C2C2OC2(C)CC1 (stereo not given)", "N"),
    ("CCCCCc1cc2c(c(OS(=O)(=O)c3ccc(C)cc3)c1)[C@H]1[C@@H](CC=C(C)[C@@H]1OO)C(C)(C)O2", "N"),
    ("CCCCCc1cc2c(c(OS(=O)(=O)c3ccc(C)cc3)c1)[C@@H]1CC(C)(OO)C=C[C@H]1C(C)(C)O2 (stereo not given in full)", "Y"),
]

* * *

Listed molecules paired with reported pKi
target: Cannabinoid receptor 1 (Homo sapiens); assay: Displacement of [3H]CP-55,940 from recombinant human full length CB1 receptor expressed in HEK293 cell membranes after 90 mins by topcount method
pKi: −log10 of the molar value.

# MOLECULE, pKi
rows = [
    ("CCCCCC1=CC(=O)C2=C(OC(C)(C)[C@@H]3CC[C@](C)(OCC)C=C23)C1=O", 6.04),
    ("CCCCCc1cc2c(c(OS(=O)(=O)c3ccc(C)cc3)c1)[C@H]1[C@@H](CC=C(C)[C@@H]1OO)C(C)(C)O2", 6.29),
    ("CCCCCc1cc2c(c(OS(=O)(=O)c3ccc(C)cc3)c1)[C@@H]1[C@H](O)C(C)=CC[C@H]1C(C)(C)O2", 6.19),
    ("C=C1C[C@H]2c3c(cc(CCCCC)cc3OS(=O)(=O)c3ccc(C)cc3)OC(C)(C)[C@@H]2CC1OO (stereo not given in full)", 5.55),
    ("CCCCCc1cc(OC(C)=O)c2c(c1)OC(C)(C)C1=C2C2OC2(C)CC1 (stereo not given)", 6.54),
    ("CCCCCc1cc2c(c(OS(=O)(=O)c3ccc(C)cc3)c1)[C@@H]1CC(C)(OO)C=C[C@H]1C(C)(C)O2 (stereo not given in full)", 6.86),
    ("CCCCCc1cc(O)c2c(c1)OC(C)(C)C1=C2C(OC(C)=O)C(C)(OC)CC1 (stereo not given)", 5.85),
    ("CCCCCc1cc(OC(C)=O)c2c(c1)OC(C)(C)[C@@H]1CC=C(C)C[C@@H]21", 7.36),
    ("CCCCCc1cc(O)c2c(c1)OC(C)(C)C1=C2C(O)C(C)(OC)CC1 (stereo not given)", 6.27),
    ("CCCCCc1cc(O)c2c(c1)OC(C)(C)[C@@H]1C=C[C@@](C)(O)C[C@@H]21", 6.33),
]

* * *

pIC50 values, listed per item
biological target: UniProt P21554; assay: Displacement of [3H]CP-55,940 from recombinant human full length CB1 receptor expressed in HEK293 cell membranes after 90 mins by topcount method
pIC50: −log10 of the molar value.

# COMPOUND, ASSAY_SYSTEM, pIC50
data = [
    ("CCCCCc1cc2c(c(OS(=O)(=O)c3ccc(C)cc3)c1)[C@@H]1CC(C)(OO)C=C[C@H]1C(C)(C)O2 (stereo partly specified)", "UniProt P21554", 6.56),
    ("CCCCCc1cc(O)c2c(c1)OC(C)(C)C1=C2C(O)C(C)(OC)CC1 (stereo unspecified)", "UniProt P21554", 5.97),
    ("CCCCCc1cc2c(c(OS(=O)(=O)c3ccc(C)cc3)c1)[C@H]1[C@@H](CC=C(C)[C@@H]1OO)C(C)(C)O2", "UniProt P21554", 5.99),
    ("CCCCCc1cc(O)c2c(c1)OC(C)(C)[C@@H]1C=C[C@@](C)(O)C[C@@H]21", "UniProt P21554", 6.03),
    ("CCCCCc1cc(OC(C)=O)c2c(c1)OC(C)(C)C1=C2C2OC2(C)CC1 (stereo unspecified)", "UniProt P21554", 6.24),
    ("CCCCCc1cc(O)c2c(c1)OC(C)(C)C1=C2C(OC(C)=O)C(C)(OC)CC1 (stereo unspecified)", "UniProt P21554", 5.55),
]
